The reported numbers originate from the supplement of paper PMC12042874.

test.details: amyloid nucleation score (Sup35N fusion, yeast selection) (log enrichment); library NNK3; higher = more nucleation; inactive = no reads after selection;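 also: zero at mode of non-aggregating sequences after 7 days selection at 30°C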
endpoint.name: amyloid nucleation score

Reference set (8 entries):
[[record]]
substance = "FSFITLMVTLSSVKIGEIWW"
result = "inactive"

[[record]]
substance = "QFLLGSWYRLLRSGTVNSPS"
result = "inactive"

[[record]]
substance = "LSDYEDIAISFIKYRCSSLN"
result = 1.42

[[record]]
substance = "MPEKERAKSSPYLSEPRPHD"
result = "inactive"

[[record]]
substance = "LRNIMGECDSAWKDVMVGVA"
result = "inactive"

[[record]]
substance = "IERCVFAFCYCSLGQSAKSF"
result = 1.49

[[record]]
substance = "EWFCLCWT"
result = "inactive"

[[record]]
substance = "CVMGIRIHPFVVYNGQGGTS"
result = "inactive"


I would be grateful if you could provide amyloid nucleation score for each of the following entries.
1. GGEGHSEVRRKTPGITCACI
2. RCVGEACVNGGCLITITYVG

1: inactive; 2: 1.16

I would be grateful if you could provide amyloid nucleation score for each of the following entries.
1. NKFFDI
2. DGDIVQCSSLCKVSGFLFTS
3. SQVVSRSLVRLEQRNAQKSV

1: inactive; 2: inactive; 3: inactive

I would be grateful if you could provide amyloid nucleation score for each of the following entries.
1. TCRICTFGVWDFCRTDERRH
2. HCQQGS
3. LHMCNS
4. TQSWLCRV
5. VLRKLYLSPDSGVNYCGDPV

1. 2.24
2. inactive
3. inactive
4. inactive
5. inactive

====

test.details: amyloid nucleation score (Sup35N fusion, yeast selection) (log enrichment); library NNK1; higher = more nucleation; inactive = no reads after selection
Label true for high-side amyloid nucleation score (at or above 0.4) and false for low-side amyloid nucleation score (below it).

[[record]]
substance = "FRWRSSGGLVCFLDAVVVSV"
class_label = "false"

[[record]]
substance = "MVVQRLF"
class_label = "false"

[[record]]
substance = "KFVYSVGMTLSSGSFSVEIF"
class_label = "true"

[[record]]
substance = "LRTKSLWSF"
class_label = "false"

[[record]]
substance = "VEAESFARCDRHVHRQTIGG"
class_label = "false"


I'd appreciate it if you could say whether `LVFFCNM` has amyloid nucleation score at least equal to 0.4.
true

I'd appreciate it if you could say whether `SFGPIVCGFVVKRMWKCNIG` has amyloid nucleation score at least equal to 0.4.
true

I'd appreciate it if you could say whether `PMFWRYILFSANNEPQFIRQ` has amyloid nucleation score at least equal to 0.4.
false

I'd appreciate it if you could say whether `SIFWSRTVLLMN` has amyloid nucleation score at least equal to 0.4.
true

I'd appreciate it if you could say whether `NWRSTLVSCLVYLPVLCCRC` has amyloid nucleation score at least equal to 0.4.
true

I'd appreciate it if you could say whether `LCAREFVDCEAILVRLWFVY` has amyloid nucleation score at least equal to 0.4.
false

I'd appreciate it if you could say whether `RSVGFEGMSNGWCATES` has amyloid nucleation score at least equal to 0.4.
true

I'd appreciate it if you could say whether `DSRFHSLGVLAHMPRDCNCG` has amyloid nucleation score at least equal to 0.4.
true

====

test.details: amyloid nucleation score (Sup35N fusion, yeast selection) (log enrichment); library NNK3; higher = more nucleation; inactive = no reads after selection
endpoint.name: amyloid nucleation score

[[record]]
substance = "LYFMCTNRQVL"
result = "inactive"

[[record]]
substance = "WKFINDIASN"
result = "inactive"

[[record]]
substance = "VCLLSS"
result = "inactive"

[[record]]
substance = "VYCEPNMP"
result = -0.163

[[record]]
substance = "RKERGSVFGSIWQFSCIRR"
result = 0.731

[[record]]
substance = "GLVLTPDEEMIRQWEMLTYG"
result = "inactive"

[[record]]
substance = "GPMWQLAVTCACSDNRMWTK"
result = 0.053

[[record]]
substance = "WDEIIY"
result = "inactive"


I would be grateful if you could provide amyloid nucleation score for each of the following entries.
1. SKVKFILTRVPLFLLRIAES
2. EVYEMNSIRMRSSELSME

1. inactive
2. inactive

====

test.details: amyloid nucleation score (Sup35N fusion, yeast selection) (log enrichment); library NNK3; higher = more nucleation; inactive = no reads after selection
endpoint.name: amyloid nucleation score

[[record]]
substance = "SRCIDGSAWASVAQRRSFSE"
result = -0.098

[[record]]
substance = "CGLPTVKTYRMEMSYNRLDW"
result = "inactive"

[[record]]
substance = "LLMGSSSSV"
result = "inactive"

[[record]]
substance = "SLLSRFIEEGASCRCTRDGS"
result = "inactive"

[[record]]
substance = "HWHMIMIKCQLEFTKEVIRA"
result = "inactive"


I would be grateful if you could provide amyloid nucleation score for each of the following entries.
1. TPAMYFPIYFSAHGHLYLFY
2. NCHSFVYYSMLGVSLSISGN
3. PFNPSYIFRLLYL

["inactive", 2.29, "inactive"]

I would be grateful if you could provide amyloid nucleation score for each of the following entries.
1. RRNYRSFKDLLFHDYTFMDS
2. FYHNNYINANHVWRKSY
3. VYESFLLMLFYFRSDCKKKR
4. HCCVLSARGWLIGSMRWPHC

1. inactive
2. inactive
3. inactive
4. inactive

I would be grateful if you could provide amyloid nucleation score for each of the following entries.
1. EYAKMSLCPSYRFCVLFASW
2. GWLGSVGAKPADRVGKTGGI
3. DTRVGP

inactive
0.504
inactive

I would be grateful if you could provide amyloid nucleation score for each of the following entries.
1. CTHLLFCPMGRVSTCSLKME
2. HKQCWYILVNVRLMSRSRRV

inactive
0.818

====

test.details: amyloid nucleation score (Sup35N fusion, yeast selection) (log enrichment); library NNK2; higher = more nucleation; inactive = no reads after selection
endpoint.name: amyloid nucleation score

Reference set (3 entries):
[[record]]
record_sequence = "VILNYVIYL"
endpoint_name = "amyloid nucleation score"
result = 10.1

[[record]]
record_sequence = "LALFALMLLLF"
endpoint_name = "amyloid nucleation score"
result = -0.055

[[record]]
record_sequence = "RNSIYCTND"
endpoint_name = "amyloid nucleation score"
result = -0.679


I would be grateful if you could provide amyloid nucleation score for each of the following entries.
1. EYSTFPRRSDRSEIHFSINL
2. ANSVCDNVVTVSLLRLYMVL
3. AWHSRTFVSLSLGRTSVEVL
4. CNLESMQSHFMVLCTFDG
5. FCELLIVAVLLQGDSLKPQS
6. FCRSYCVLVYLWSPYVTGSK

3.47
5.39
-0.242
-0.044
0.485
0.349

====

test.details: amyloid nucleation score (Sup35N fusion, yeast selection) (log enrichment); library NNK3; higher = more nucleation; inactive = no reads after selection
endpoint.name: amyloid nucleation score

[[record]]
substance = "GRRMSNLEKPVLLDIKANFL"
endpoint_name = "amyloid nucleation score"
result = "inactive"

[[record]]
substance = "QVLLCNAPFRQLYVACFYCF"
endpoint_name = "amyloid nucleation score"
result = 0.422

[[record]]
substance = "QYFSWKIRSGNLVYAF"
endpoint_name = "amyloid nucleation score"
result = "inactive"

[[record]]
substance = "IIIRGSSVLVVRLNDEGYVL"
endpoint_name = "amyloid nucleation score"
result = 0.216

[[record]]
substance = "NLSVAMRLICVTLFLVLLGI"
endpoint_name = "amyloid nucleation score"
result = "inactive"


I would be grateful if you could provide amyloid nucleation score for each of the following entries.
1. VKISPNAWALQLR
2. LFMLVAE
3. VSLGFEFMGFHAGW
4. WIGVQCP
5. VRHGSMTDCYFLHTLDRREC

1. inactive
2. inactive
3. 1.09
4. inactive
5. inactive

I would be grateful if you could provide amyloid nucleation score for each of the following entries.
1. YFNRNQYVDDTCG
2. VSSILQRIISYFRTARFNYL
3. LYDSIVHESKRLLATDRIRF
4. EYRLVKFHSPLFQRIKSIVA

inactive
inactive
inactive
inactive

I would be grateful if you could provide amyloid nucleation score for each of the following entries.
1. TSYDFTMARYCSNDYVFIWH
2. QQWWLLFSLC
3. AFQMCATGRRIDTGDVSFVV

1. 2.44
2. inactive
3. inactive

I would be grateful if you could provide amyloid nucleation score for each of the following entries.
1. VRVSLDRTGYKSSCHVVSRG
2. TCSMSTARSCSHKSNRVMHW
3. SKECILVLAFDGCSGSSRWY

["inactive", "inactive", "inactive"]

====

test.details: amyloid nucleation score (Sup35N fusion, yeast selection) (log enrichment); library NNK3; higher = more nucleation; inactive = no reads after selection
endpoint.name: amyloid nucleation score

[[record]]
substance = "RYKRTGIWCFECNRVLVEVF"
result = "inactive"

[[record]]
substance = "LFEDKCGNPWRNY"
result = -0.126

[[record]]
substance = "FYGHQVNISGDNGVRTRPEV"
result = "inactive"

[[record]]
substance = "HTVVPNRVNSPCVWWLFFVW"
result = 1.3

[[record]]
substance = "MSNRHWM"
result = "inactive"

[[record]]
substance = "AFVDAQQVNGLYGWYDSKCD"
result = "inactive"


I would be grateful if you could provide amyloid nucleation score for each of the following entries.
1. MLSMTRCAHIDGGDWFKMAV
2. SNSDVN
3. YLKVADVSLHLSHDLTYLLM

["inactive", "inactive", "inactive"]
